# assayedTarget: T1, mouse DLL3 extracellular domain (ECD) with C-terminal 8xHis tag and Avi tag (mouse, UniProt O88516 33-490)
# T1 construct: extracellular domain; Expressed in Expi293, purified by IMAC and SEC; also called msDLL3; not shown: Avi tag
# T1 sequence: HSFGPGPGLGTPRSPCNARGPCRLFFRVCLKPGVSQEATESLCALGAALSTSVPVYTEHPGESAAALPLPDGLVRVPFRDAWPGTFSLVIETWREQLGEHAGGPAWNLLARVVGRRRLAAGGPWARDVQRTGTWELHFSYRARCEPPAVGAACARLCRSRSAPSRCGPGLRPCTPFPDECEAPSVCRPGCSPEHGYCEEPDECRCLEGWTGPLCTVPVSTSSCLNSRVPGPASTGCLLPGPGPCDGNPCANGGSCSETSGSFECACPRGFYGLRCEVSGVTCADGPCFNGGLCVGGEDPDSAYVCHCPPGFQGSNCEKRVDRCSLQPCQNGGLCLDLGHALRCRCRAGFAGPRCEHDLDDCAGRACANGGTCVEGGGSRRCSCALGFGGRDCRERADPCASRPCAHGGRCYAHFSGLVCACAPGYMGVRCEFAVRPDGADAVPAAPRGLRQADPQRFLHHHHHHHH
# protocolDetails: SPR (Biacore), 37 C; scFv-Fc captured on chip, mouse DLL3 ECD in solution; 1:1 Langmuir fit
reportedProperty: Kd (nM)
Please give a number only; it is taken to be in nM.

binder	unitsLabel	Kd
2G1 scFv-Fc fusion (Fc fusion, not shown: a dimerising Fc or GST, scFv-Fc expressed in Expi293) scFv: QLQLQESGPGLVKPSETLSLTCTVSGGSISSSSYYWGWIRQPPGKGLEWIGSIYYSGNIYHNPSLKSRVSISVDTSKNQFSLRLSSVTAADTAVYYCAREIIVGATHFDYWGQGTLVTVSSGGGGSGGGGSGGGGSGGGGSAIQMTQSPSSLSASVGDRVTITCRASQGIRNDLGWYQQKPGKAPELLIYAASSLQSGVPSRFSGSGSGTDFTLTISSLQPEDFATYYCLQDYNYPLTFGPGTKVDIK	nM	2.61

Would you kindly look at the next entry?
Req: May I ask what Kd has been recorded for 9D3 scFv-Fc fusion (Fc fusion, not shown: a dimerising Fc or GST, scFv-Fc expressed in Expi293) scFv: QVQLQESGPGLVKPSETLSLTCTVSDDSISNYYWSWIRQPPGKGLEWIGYIFYSGTTNHNPSLKSRLTISLDKAKNQFSLRLSSVTAADTAVYYCARVFNWGFAFDIWGQGTMVTVSSGGGGSGGGGSGGGGSGGGGSEIVLTQSPGTLSLSPGERATLSCRASQRISRTYLAWYQQKPGQAPRLLIYGASSRATGIPDRFTGSGSGTDFTLTISRLEPEDFAVYYCQQYGTSPLTFGGGTKVEIN ?
Resp: 7.19
